target: recombinant human GluN1/GluN2A receptor (Homo sapiens, UniProt Q05586+Q12879); construct: expressed in transfected cells; host or cells: HEK293, tetracycline-inducible expression; experiment: Whole-cell patch clamp of mammalian cells (Syncropatch 384i), NMDA modulation; assay type: cell-based; details: Table B-2; HEK293 cells, human GluN1/GluN2A; glutamate 1 μM / glycine 100 μM; -80 mV; peak amplitude increase
Sequence (Q12879 23-1464, other chains not shown): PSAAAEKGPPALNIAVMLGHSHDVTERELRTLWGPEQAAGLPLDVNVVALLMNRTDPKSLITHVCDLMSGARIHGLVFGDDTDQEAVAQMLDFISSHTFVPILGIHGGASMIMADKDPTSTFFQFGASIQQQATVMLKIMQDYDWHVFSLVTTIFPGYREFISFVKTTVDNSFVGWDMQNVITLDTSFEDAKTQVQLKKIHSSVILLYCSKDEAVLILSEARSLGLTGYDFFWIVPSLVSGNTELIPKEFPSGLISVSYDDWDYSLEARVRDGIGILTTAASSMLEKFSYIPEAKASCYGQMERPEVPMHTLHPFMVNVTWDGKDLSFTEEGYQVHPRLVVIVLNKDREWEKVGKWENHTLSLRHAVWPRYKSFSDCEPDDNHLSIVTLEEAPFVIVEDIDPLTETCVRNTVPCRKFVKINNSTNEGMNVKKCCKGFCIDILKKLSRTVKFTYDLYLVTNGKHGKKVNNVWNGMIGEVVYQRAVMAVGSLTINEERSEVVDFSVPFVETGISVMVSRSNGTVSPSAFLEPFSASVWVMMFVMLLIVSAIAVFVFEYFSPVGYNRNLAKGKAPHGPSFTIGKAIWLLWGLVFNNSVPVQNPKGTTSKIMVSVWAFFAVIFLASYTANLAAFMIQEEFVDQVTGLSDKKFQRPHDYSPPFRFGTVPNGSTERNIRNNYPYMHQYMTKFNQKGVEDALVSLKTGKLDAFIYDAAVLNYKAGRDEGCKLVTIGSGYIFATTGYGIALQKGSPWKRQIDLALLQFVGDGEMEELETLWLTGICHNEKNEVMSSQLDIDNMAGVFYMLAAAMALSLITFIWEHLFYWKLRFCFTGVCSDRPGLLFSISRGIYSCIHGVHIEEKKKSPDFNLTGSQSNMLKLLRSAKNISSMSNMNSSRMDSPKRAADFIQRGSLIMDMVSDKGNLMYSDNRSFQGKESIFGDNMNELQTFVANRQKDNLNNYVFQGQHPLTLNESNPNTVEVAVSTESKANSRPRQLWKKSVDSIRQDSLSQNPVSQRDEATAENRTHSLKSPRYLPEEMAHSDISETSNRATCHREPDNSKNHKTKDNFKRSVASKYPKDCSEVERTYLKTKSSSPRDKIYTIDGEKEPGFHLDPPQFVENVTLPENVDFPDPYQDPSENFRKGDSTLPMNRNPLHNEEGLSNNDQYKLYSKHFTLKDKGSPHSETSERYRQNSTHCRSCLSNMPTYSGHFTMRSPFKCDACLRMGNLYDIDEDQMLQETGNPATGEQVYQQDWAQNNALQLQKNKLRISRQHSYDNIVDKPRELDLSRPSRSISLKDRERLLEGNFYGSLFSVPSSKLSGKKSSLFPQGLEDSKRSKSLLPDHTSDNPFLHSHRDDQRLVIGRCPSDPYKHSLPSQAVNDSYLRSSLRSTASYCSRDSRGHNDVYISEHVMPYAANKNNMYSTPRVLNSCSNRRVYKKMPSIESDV
Quick reference: Emax of the listed items.

CC[C@]1(O)CC[C@@]2(C)[C@@H](CC[C@H]3[C@@H]4[C@H](C)C[C@H]([C@H](C)CC[C@@](C)(O)C(F)(F)F)[C@@]4(C)CC[C@@H]32)C1 [Compound B-16] :: 100 to 200%
CC[C@]1(O)CC[C@@]2(C)[C@@H](CC[C@H]3[C@@H]4[C@@H](C5CC5)C[C@H]([C@H](C)CCCC(C)(C)O)[C@@]4(C)CC[C@@H]32)C1 [Compound B-19] :: 100 to 200%

# next molecule below
Lab note: measured Emax of CC[C@]1(O)CC[C@@]2(C)[C@@H](CC[C@H]3[C@@H]4[C@H](C)C[C@H]([C@H](C)CC[C@](C)(O)C(F)(F)F)[C@@]4(C)CC[C@@H]32)C1 [Compound B-15] was 100 to 200%
